Field: 100 nM huCB1-GFP-SMALP binding (normalized to 10D10N35Y). Provide a value for each of the binders that follow.
- Test System: T1, GFP-fused huCB1-SMALP (human CB1 in styrene maleic acid lipoparticles) (human, UniProt P21554 1-472)
- T1 construct: Prepared as in Luna V. et al. 2018; also called huCB1-GFP-SMALP; wtCB1-SMALP; not shown: GFP fusion
- T1 sequence (P21554 whole entry, the tested form may be a part): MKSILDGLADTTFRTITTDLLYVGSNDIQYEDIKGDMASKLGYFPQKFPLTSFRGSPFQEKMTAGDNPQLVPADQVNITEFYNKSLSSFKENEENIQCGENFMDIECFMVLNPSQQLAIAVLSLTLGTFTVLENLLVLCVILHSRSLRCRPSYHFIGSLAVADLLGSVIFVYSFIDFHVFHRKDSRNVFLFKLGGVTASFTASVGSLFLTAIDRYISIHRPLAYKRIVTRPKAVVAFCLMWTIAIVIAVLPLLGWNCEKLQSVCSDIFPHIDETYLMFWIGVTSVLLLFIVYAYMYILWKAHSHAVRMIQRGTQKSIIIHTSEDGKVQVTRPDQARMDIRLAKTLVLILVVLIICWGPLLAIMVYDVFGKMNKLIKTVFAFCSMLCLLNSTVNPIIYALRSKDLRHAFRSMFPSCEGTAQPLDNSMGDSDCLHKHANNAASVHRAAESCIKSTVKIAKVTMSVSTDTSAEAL
- Procedure Summary: flow cytometry, yeast-displayed IgG, GFP MFI
Numbers only, in fold.

Would you please look over these solved cases?
>  <Binder>
LIBC527906-1 (antibody, V domains shown, also called LIBC527906-1 + VK1 germline fix(es)) VH: QVQLQESGPGLVKPSQTLSLTCTVSGGSIRRGGDYWGWIRQHPGKGLEWIGHIYQTGSTNYNPNFKDRATISVDTYKNQFSLKLSSVTAADTAVYYCARDYDILTGYSYYYYGMDVWGQGTTVTVSS VL: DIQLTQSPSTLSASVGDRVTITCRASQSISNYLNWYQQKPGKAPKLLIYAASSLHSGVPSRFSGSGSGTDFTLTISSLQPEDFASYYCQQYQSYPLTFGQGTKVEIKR

>  <Reading>
3.79

$$$$
>  <Binder>
LIBC528148-1 (antibody, V domains shown) VH: QVQLQESGPGLVKPSQTLSLTCTVSGGSIRRGGDYWSWIRQHPGKGLEWIGHIYQSGQTKYNPKLKGRATISVDTYKNQFSLKLSSVTAADTAVYYCARDYDILTGYSYYYYGMDVWGQGTTVTVSS VL: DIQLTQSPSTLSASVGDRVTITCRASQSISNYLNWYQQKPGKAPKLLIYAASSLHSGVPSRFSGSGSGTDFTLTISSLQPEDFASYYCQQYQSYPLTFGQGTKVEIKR

>  <Reading>
3.38

$$$$
>  <Binder>
LIBC527984-1 (antibody, V domains shown, also called LIBC527984-1 + VK1 germline fix(es)) VH: QVQLQESGPGLVKPSQTLSLTCTVSGGSIRRGGDYWSWIRQHPGKGLEWIGHIYQTGKTNYNPNFKSRATISVNTYKNQFSLKLSSVTAADTAVYYCARDYDILTGYSYYYYGMDVWGQGTTVTVSS VL: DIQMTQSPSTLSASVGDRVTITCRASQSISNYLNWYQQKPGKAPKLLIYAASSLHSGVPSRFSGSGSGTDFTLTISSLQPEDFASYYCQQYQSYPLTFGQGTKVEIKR

>  <Reading>
4.85

$$$$

Next up:
Q: Give the reported 100 nM huCB1-GFP-SMALP binding (normalized to 10D10N35Y) for this binder. LIBC528116-1 (antibody, IgG1, V domains shown, also called 37940-4) VH: QVQLQESGPGLVKPSQTLSLTCTVSGGSIRRGGDYWAWIRQHPGKGLEWIGHVYYTGSTNYNPRFKDRATISVNTYKNQFSLKLSSVTAADTAVYYCARNYDTVTGYSYYYYGMDVWGQGTTVTVSS VL: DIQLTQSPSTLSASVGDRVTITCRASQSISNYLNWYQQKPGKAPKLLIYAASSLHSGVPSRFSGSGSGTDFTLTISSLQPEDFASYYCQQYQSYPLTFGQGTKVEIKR
Result: 5.8
